Data provenance: PubChem BioAssay (EPA / NIEHS)

Molecular target: Estrogen receptor (Homo sapiens) + Estrogen receptor beta (Homo sapiens) (UniProt P03372+Q92731)
Sequence (P03372 whole entry, looked up, the tested form may be a part): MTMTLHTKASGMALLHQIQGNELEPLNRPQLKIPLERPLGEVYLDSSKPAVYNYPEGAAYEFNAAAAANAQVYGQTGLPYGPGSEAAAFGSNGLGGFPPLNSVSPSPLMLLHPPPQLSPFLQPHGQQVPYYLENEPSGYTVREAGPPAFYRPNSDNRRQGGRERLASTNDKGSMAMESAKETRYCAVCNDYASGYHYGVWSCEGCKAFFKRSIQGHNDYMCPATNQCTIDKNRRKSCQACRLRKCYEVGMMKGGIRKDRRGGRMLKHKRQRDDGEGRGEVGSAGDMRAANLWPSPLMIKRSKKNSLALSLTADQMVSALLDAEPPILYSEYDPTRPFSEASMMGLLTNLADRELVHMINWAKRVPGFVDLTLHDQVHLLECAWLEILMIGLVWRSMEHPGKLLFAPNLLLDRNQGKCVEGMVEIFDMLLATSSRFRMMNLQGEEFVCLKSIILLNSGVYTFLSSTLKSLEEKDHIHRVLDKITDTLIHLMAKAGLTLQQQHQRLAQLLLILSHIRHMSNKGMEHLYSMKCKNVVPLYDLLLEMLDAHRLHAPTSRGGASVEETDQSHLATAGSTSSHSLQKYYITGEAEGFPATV
Sequence (Q92731 whole entry, looked up, the tested form may be a part): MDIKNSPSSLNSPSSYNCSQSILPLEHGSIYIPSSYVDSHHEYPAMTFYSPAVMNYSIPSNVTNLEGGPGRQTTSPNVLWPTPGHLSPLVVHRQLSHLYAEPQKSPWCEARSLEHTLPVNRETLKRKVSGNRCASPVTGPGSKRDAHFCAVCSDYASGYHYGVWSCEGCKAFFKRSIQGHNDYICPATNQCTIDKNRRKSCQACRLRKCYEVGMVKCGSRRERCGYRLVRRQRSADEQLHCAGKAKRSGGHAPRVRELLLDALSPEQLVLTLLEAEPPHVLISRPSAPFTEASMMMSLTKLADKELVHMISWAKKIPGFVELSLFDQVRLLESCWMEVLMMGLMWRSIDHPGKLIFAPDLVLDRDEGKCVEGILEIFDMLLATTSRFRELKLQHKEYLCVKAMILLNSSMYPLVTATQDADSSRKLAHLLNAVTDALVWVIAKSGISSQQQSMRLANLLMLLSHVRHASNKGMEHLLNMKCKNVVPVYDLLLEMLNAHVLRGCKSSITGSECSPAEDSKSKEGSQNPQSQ
Assay: OT_ER_ERaERb_1440: Odyssey Thera (OT) 24-hour HEK293T Protein-Complementation Assay for Estrogen Receptor-alpha/-beta Homodimer (AID 2283356);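 note: heteromer of ER alpha and ER beta binding domains; hits raise reporter fluorescence and both agonists and antagonists give an increase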
Records with an inconclusive call do not appear. Calls of active or inactive are those of the source. Rule for the calls: active = hit-call score of the fitted dose curve at least 0.9, where 1 is the maximum; inconclusive = response in the unintended direction; inactive = score below 0.9.
Classes to choose from: active, inactive

Worked set:
{"columns": ["COMPOUND", "DISCRETE LABEL"],
 "data": [
  ["COP(=O)(OC)OC(Br)C(Cl)(Cl)Br (configuration not stated)", "inactive"],
  ["CCCCOC(=O)[C@@H](C)Oc1ccc(Oc2ccc(C#N)cc2F)cc1", "inactive"]
]}

Req: Short answer needed: outcome of this test for CCc1cccc(CC)c1N(COC)C(=O)CCl ?
Resp: inactive

Req: Short answer needed: outcome of this test for CSc1nc(NC(C)C)nc(NC(C)C)n1 ?
Resp: inactive

Req: Short answer needed: outcome of this test for CNC(=O)ON=C(SC)C(=O)N(C)C ?
Resp: inactive

Req: Short answer needed: outcome of this test for Cc1cc(C2CC2)nc(Nc2ccccc2)n1 ?
Resp: active

Req: Short answer needed: outcome of this test for Nc1c(Cl)cc([N+](=O)[O-])cc1Cl ?
Resp: inactive
